biological target: Luciferin 4-monooxygenase (Photinus pyralis) (UniProt P08659); experiment: Natriuretic polypeptide receptor (hNpr1) antagonism - Confirmation firefly luciferase (FLuc) inhibition counterscreen; details: purified FLuc enzyme, luminescence, Km substrate; series mostly up to 57.6 µM
Sequence (P08659 whole entry, looked up): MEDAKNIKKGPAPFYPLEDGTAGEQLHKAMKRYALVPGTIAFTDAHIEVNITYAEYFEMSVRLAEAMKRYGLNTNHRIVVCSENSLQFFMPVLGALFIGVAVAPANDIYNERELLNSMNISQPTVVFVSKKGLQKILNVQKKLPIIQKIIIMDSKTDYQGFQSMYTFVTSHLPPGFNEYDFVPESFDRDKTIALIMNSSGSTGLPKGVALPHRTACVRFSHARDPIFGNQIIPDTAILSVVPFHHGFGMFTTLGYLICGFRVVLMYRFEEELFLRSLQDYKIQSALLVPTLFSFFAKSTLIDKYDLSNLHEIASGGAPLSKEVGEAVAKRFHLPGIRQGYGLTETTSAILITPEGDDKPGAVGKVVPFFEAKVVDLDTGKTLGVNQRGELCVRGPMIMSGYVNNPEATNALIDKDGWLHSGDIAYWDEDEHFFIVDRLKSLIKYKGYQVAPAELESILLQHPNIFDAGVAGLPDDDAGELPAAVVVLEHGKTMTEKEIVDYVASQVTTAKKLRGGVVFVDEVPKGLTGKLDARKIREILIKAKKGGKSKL
Among all 1,400 compounds or so, about 10 (0.7%) were called active. About 2% were inconclusive and are not listed. Calls follow the shape of the dose curve; as a rule, active = well fitted inhibition curve with a large enough effect; inconclusive = small, poorly fitted or top-dose-only effect; inactive = flat fitted curve, though single readings scatter. The sample holds actives, similar compounds and a random draw of the others, so the mix is not that of the screen.
Can you answer with just one of these options? active, inactive

Solved entries (count: 5):
1. Cc1noc(C)c1-c1cc(-c2ccccc2Oc2ccccc2)cn2cncc12
inactive
2. O=C(NCc1nnc2cc(-c3nc(C4CC4)no3)ccn12)c1ccc(F)cc1Cl
inactive
3. CC1=NS(=O)(=O)N(C)C=C1C(=O)OCc1noc(-c2ccco2)n1
inactive
4. O=C(c1ccccc1)N1CCC(C(=O)N2CCC(Cc3nc(-c4ccc(F)cc4)no3)CC2)CC1
inactive
5. COc1ccc(S(=O)(=O)N2CCc3c(C(=O)NCCc4ccccn4)cccc32)cc1
inactive

Prompt: Record request — test call for COc1ccc(CN2C(=O)CO[C@H]3CN(Cc4ccc5c(c4)OCO5)C[C@H]32)cc1
Completion: inactive

Prompt: # fetch the recorded call for COc1ccc(CC(=O)N2CCC(Cc3nc(-c4ccccc4)no3)CC2)cc1OC here
Completion: inactive

====

molecular target: Luciferin 4-monooxygenase (Photinus pyralis) (UniProt P08659); assay: Natriuretic polypeptide receptor (hNpr1) antagonism - Confirmation firefly luciferase (FLuc) inhibition counterscreen; settings: purified FLuc enzyme, luminescence, Km substrate; series mostly up to 57.6 µM
In all, about 1,400 compounds went through this assay and about 10 (0.7%) were called active. Inconclusive results (about 2%) are left out. Calls come from the whole dose curve; as a rule, active = well fitted inhibition curve with a large enough effect; inconclusive = small, poorly fitted or top-dose-only effect; inactive = flat fitted curve, though single readings scatter. This is one part of a sample in which actives are shown more often than they occur.
Pick one: active, inactive

For orientation, consider the following solved cases.
1. CC(C)c1cc(C(=O)N2CCC(n3cc(-c4ccccn4)nn3)CC2)n(C)n1
inactive
2. O=C(N1CCN(c2cc(-c3ccc(Cl)cc3)[nH]n2)CC1)C1(c2ccccc2)CC1
inactive
3. CC(C)c1noc(-c2cn(C3CCN(C(=O)c4ccc(N(C)C)cc4)C3)nn2)n1 (centres undefined)
inactive
4. O=C(NCC1CC1)c1nc2c(o1)CCN(Cc1cccc(F)c1F)CC2
inactive
5. Cc1cccc(C(=O)N2CCC(Oc3ccc(-c4noc(C(C)C)n4)cc3)C2)c1 (centres undefined)
inactive

Prompt: What is the recorded call for this molecule in the test? Fc1ccc(CNC[C@H]2Cn3c(-c4ccc5c(c4)OCCO5)cnc3CO2)cc1
Completion: inactive

Prompt: Which outcome was assigned to O=C1c2cnc(-c3ccc(Cl)cc3)nc2OCCN1Cc1ccccc1 in this test?
Completion: active

Prompt: Outcome? Cc1nn2c(c1-c1ccnn1C(C)C)N(CC1CCOCC1)CCC2
Completion: inactive

Prompt: What did this assay record as the result for COC(=O)c1cccc(NC(=O)CCNc2c(C)nc3cnccn23)c1 ?
Completion: inactive

Prompt: Check the results log: what was the call for Cc1cc(CNC(=O)c2ccc(-c3ccccc3Cl)o2)n(C)n1 ?
Completion: inactive

Prompt: Returns: the outcome recorded for Cc1cccc(CN2CCc3nc(C(=O)Nc4ccc(Cl)cc4)oc3CC2)c1 in this assay.
Completion: inactive

====

target: Luciferin 4-monooxygenase (Photinus pyralis) (UniProt P08659); test: Natriuretic polypeptide receptor (hNpr1) antagonism - Confirmation firefly luciferase (FLuc) inhibition counterscreen; details: purified FLuc enzyme, luminescence, Km substrate; series mostly up to 57.6 µM
The campaign covered roughly 1,400 compounds. About 10 (0.7%) were called active. Another 2% or so got no clear call; they are omitted. The full list was thinned out, with actives kept by preference.
Endpoint: outcome

1. c1ccc(CO[C@@H]2CO[C@H]3[C@@H]2OC[C@@H]3n2nnnc2SCc2ccco2)cc1
inactive
2. O=C(c1ccccn1)N1CC(Oc2ccc(-c3noc(C4CC4)n3)cc2)C1
inactive
3. CCc1ccc(C(=O)N2CCN(c3cc(-c4ccc(F)cc4)[nH]n3)CC2)cc1
inactive

The measured values listed here are drawn from PubChem BioAssay AID1347047.
